System: SF-295 CNS
Experiment: NCI tumour cell line growth inhibition, 48 h
Where a SMILES comes first, the peptide text is derived from it. The star is where a group is joined. Boc = CC(C)(C)OC(=O)*; OSu = O=C1CCC(=O)N1O*
Can you tell me TGI for the items I'm about to list?

- Molecule: "O=C1c2ccc(O)cc2C(=O)c2ccc(O)cc21"
  Data Value: "> 100 µM"
- Molecule: "Cc1[nH]c2c(c1C)S(=O)(=O)c1cc3ccccc3nc1N2"
  Data Value: "> 100 µM"
- Molecule: "COc1cc2c(cc1OC)C(C(CO)CO)N(CC(O)CCl)CC2 (stereo not drawn)"
  Data Value: "> 100 µM"

Parameter requested: TGI. Apply to each item below.
1. COc1ccc2nc3c([N+](=O)[O-])ccc4c3c(c2c1)NCCN4CCO
2. Cc1ccc(S(=O)(=O)N/N=C(\c2nc3ccc(Cl)cc3[nH]c2=O)C(O)c2cccc([N+](=O)[O-])c2)cc1 (stereo not drawn)
3. Cc1[nH]c2ccccc2c1C(=O)CC1(O)C(=O)Nc2ccccc21 (stereo not drawn)
4. Cc1nc(SCC(=O)Nc2nc(-c3ccc(Cl)cc3)cs2)n(Nc2ccccc2)c1C
5. CN(C)CC(C)(C)/C(=N\Nc1ccccc1)c1ccccc1

1.71 µM
> 100 µM
> 100 µM
16.5 µM
46.4 µM

Parameter requested: TGI. Apply to each item below.
1. Cc1cc2c(ccc3c(C)cc(=O)oc32)o1
2. CC(NC(=O)C(NC(=O)OC(C)(C)C)C(C)C)C(=O)NCC(=O)ON1C(=O)CCC1=O (stereo not drawn) (Boc-Val-Ala-Gly-OSu; configuration not given here)
3. Fc1ccc2[nH]cc(-c3nonc3-c3c[nH]c4ccc(Br)cc34)c2c1
4. Cc1cnc2sn(-c3ccc(Oc4ccccc4)cc3)c(=O)c2c1
5. COc1ccc(OC)c(/C(C)=N/NC(N)=S)c1

1: > 100 µM; 2: > 100 µM; 3: 4.2 µM; 4: 39.3 µM; 5: > 100 µM

Parameter requested: TGI. Apply to each item below.
1. O=c1c(Oc2ccc(F)cc2F)cc2cnc(NC3CCOCC3)nc2n1CCCO
2. C[C@]12CC[C@H]3[C@@H](CC=C4C[C@@H](N5CCCC5)CC[C@@]43C)[C@@H]1C[C@H](N1CCOCC1)[C@@H]2O
3. CC[N+](CC)=c1sc2c(s1)C(c1ccc(Cl)cc1)Oc1ccc(Cl)cc1-2 (stereo not drawn)
4. O=[N+]([O-])C1CC/C(=N/O)c2nonc21 (stereo not drawn)
5. NC(N)=N/N=C/c1nc2n(c1[N+](=O)[O-])CCS2
6. CO[C@H]1/C=C/O[C@@]2(C)Oc3c(C)c(O)c4c(c3C2=O)C(=O)C(/C=N/N(c2ccccc2)c2ccccc2)=C(NC(=O)/C(C)=C\C=C\[C@H](C)[C@H](O)[C@@H](C)[C@@H](O)[C@@H](C)[C@H](OC(C)=O)[C@@H]1C)C4=O
7. O=C1CCC2(CC1CC(Sc1ccccc1)Sc1ccccc1)OCCO2 (stereo not drawn)
8. CC(=O)N=C1N(/C=C2\C(=O)Oc3ccccc3C2=O)C(=O)/C(=C/c2ccc(OC(C)=O)cc2)N1C

1. > 25 µM
2. > 100 µM
3. 4.64 µM
4. > 10 µM
5. 98.4 µM
6. 3 µM
7. > 100 µM
8. > 100 µM

Parameter requested: TGI. Apply to each item below.
1. O=C1c2ccccc2C(Br)(Br)c2ccccc21
2. CN(C)CC(C)(C)C(=O)/C=C/c1ccc(/C=C/C(=O)C(C)(C)CN(C)C)cc1
3. CC1CCC2(CC1)NN=c1s/c(=C\c3ccc(O)cc3)c(=O)n1N2 (stereo not drawn)
4. CC(=O)[CH-]C(C)=O.CC(=O)[CH-]C(C)=O.[CH2-]CCC.[CH2-]CCC.[Sn+4]
5. O=C(/C=C/c1ccc(O)c(O)c1)OCCCc1ccccc1

1. > 31.6 µM
2. 3.84 µM
3. > 100 µM
4. 2.8 µM
5. 38.9 µM

Parameter requested: TGI. Apply to each item below.
1. Cc1ccc(NC(=O)C2C(=O)N(c3ccc(C)cc3)C(=O)/C2=N\NC(N)=S)cc1 (stereo not drawn)
2. C#CCOc1cccc(-c2ncnc3cc(NC(=O)CCl)ccc23)c1
3. CC(=O)OCCCOCn1c(Cc2ccccc2)c(C)c(=O)[nH]c1=O
4. CCC12CCCN(Cc3ccccc3)C1c1c([nH]c3ccccc13)C(C(=O)OC)C2 (stereo not drawn)
5. COc1ccc(-c2cc(=O)c3cc4c(cc3[nH]2)OCO4)cc1OC
6. Cc1ccsc1/C=N/Nc1nc2ccccc2s1

> 100 µM
9.25 µM
> 100 µM
> 10 µM
> 100 µM
23.8 µM

Log: SF-295 CNS, molecule CCOC(=O)c1ccc(Nc2c3c(nc4ccccc24)CCCC3)cc1 , TGI = > 100 µM
